- Tested on: elastase
- test-name: in vitro
- details: isolated enzyme elastase, pH 7.2
Bridge positions count the residues as written; N and C are the ends. Peptide text beside a SMILES is read from it. * marks the point of attachment. X1 = O=C1[C@@H]2[C@H](C(=O)N1CCCCCC(=O)*)[C@H]1C=C[C@@H]2C1
measured-quantity: remaining at 550 min, 0.2 mM

// query Form field: reported remaining at 550 min, 0.2 mM of NCCCC[C@H](NC(=O)[C@@H]1CCCN1C(=O)[C@@H]1CSSC[C@H](NC(=O)CNC(=O)CNC(=O)CNC(=O)CCCCCN2C(=O)[C@@H]3[C@H](C2=O)[C@H]2C=C[C@@H]3C2)C(=O)N[C@@H](Cc2ccc(O)cc2)C(=O)N[C@@H](Cc2ccccc2)C(=O)N[C@@H](CCC(N)=O)C(=O)N[C@@H](CC(N)=O)C(=O)N1)C(=O)NCC(N)=O [terlipressin peptide monomer] (X1-GGGCYFQNCPKG-NH2; disulfide 4-9)
// result ~50%
